Collected flow cytometry signal at 10 µg/ml values appear next to each entry.
- assay.system: full-length HA from isolate A/Vietnam/1194/2004 (H5N1TV) on PER.C6 cells (influenza A virus A/Vietnam/1194/2004 …, UniProt Q80A26 6-554)
- protocol.text: flow cytometry, transfected PER.C6 cells
The reply should be a number, written without any unit.

Some solved entries appear below for comparison.
{"binder": "CR6260 (antibody, V domains shown) VH: EVQLVESGAEVKKPGSSVKVSCKASGGPFRSYAISWVRQAPGQGPEWMGGIIPIFGTTKYAPKFQGRVTITADDFAGTVYMELSSLRSEDTAMYYCAKHMGYQVRETMDVWGKGTTVTVSS VL: SYVLTQPPSVSGTPGQRVTISCSGSRSNVGDNSVYWYQHVPEMAPKLLVYKNTQRPSGVPARFSGSKSGTSASLAIIGLQSGDEADYYCVAWDDSVDGYVFGSGTKVTVLG", "value.observed": 323}
{"binder": "CR6255 (antibody, V domains shown) VH: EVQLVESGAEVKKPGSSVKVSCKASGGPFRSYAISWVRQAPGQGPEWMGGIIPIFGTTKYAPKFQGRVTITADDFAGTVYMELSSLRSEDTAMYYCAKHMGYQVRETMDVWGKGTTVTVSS VL: SYVLTQPPSASGTPGQRVTISCSGSTFNIGSNAVDWYRQLPGTAPKLLIYSNNQRPSGVPDRFSGSRSGTSASLAISGLQSEDEADYYCAAWDDILNVPVFGGGTKLTVLG", "value.observed": 414}

// moving on: another record for flow cytometry signal at 10 µg/ml
# query: flow cytometry signal at 10 µg/ml of entry CR6314 (antibody, V domains shown) VH: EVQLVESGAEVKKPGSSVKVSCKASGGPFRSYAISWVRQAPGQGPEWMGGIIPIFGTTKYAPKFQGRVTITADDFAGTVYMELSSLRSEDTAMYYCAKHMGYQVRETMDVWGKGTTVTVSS VL: SYVLTQPPSASGTPGQRVTISCSGSSSNIGSNYVYWYQQLPGTAPKLLIYRDGQRPSGVPDRFSGSKSGTSASLAISGLRSDDEADYYCATWDDNLSGPVFGGGTKLTVLG
400
